Source listed as patent US9586951B2.

molecular target: ATM (Homo sapiens); construct: detecting phosphorylation of Chk2 in a human non-small cell lung cancer cell line NCI-H460 (ATCC company); host or cells: NCI-H460 human non-small cell lung cancer cells; assay: ATM inhibition test (phosphorylation of Chk2 generated by ionizing radiation, AlphaScreen SureFire); format: cell-based; settings: phosphorylated Chk2 in NCI-H460 cells, ionizing radiation 8Gy, 1 hour after test compound treatment; read-out: ATM inhibitory activity
Sequence (Q13315 whole entry): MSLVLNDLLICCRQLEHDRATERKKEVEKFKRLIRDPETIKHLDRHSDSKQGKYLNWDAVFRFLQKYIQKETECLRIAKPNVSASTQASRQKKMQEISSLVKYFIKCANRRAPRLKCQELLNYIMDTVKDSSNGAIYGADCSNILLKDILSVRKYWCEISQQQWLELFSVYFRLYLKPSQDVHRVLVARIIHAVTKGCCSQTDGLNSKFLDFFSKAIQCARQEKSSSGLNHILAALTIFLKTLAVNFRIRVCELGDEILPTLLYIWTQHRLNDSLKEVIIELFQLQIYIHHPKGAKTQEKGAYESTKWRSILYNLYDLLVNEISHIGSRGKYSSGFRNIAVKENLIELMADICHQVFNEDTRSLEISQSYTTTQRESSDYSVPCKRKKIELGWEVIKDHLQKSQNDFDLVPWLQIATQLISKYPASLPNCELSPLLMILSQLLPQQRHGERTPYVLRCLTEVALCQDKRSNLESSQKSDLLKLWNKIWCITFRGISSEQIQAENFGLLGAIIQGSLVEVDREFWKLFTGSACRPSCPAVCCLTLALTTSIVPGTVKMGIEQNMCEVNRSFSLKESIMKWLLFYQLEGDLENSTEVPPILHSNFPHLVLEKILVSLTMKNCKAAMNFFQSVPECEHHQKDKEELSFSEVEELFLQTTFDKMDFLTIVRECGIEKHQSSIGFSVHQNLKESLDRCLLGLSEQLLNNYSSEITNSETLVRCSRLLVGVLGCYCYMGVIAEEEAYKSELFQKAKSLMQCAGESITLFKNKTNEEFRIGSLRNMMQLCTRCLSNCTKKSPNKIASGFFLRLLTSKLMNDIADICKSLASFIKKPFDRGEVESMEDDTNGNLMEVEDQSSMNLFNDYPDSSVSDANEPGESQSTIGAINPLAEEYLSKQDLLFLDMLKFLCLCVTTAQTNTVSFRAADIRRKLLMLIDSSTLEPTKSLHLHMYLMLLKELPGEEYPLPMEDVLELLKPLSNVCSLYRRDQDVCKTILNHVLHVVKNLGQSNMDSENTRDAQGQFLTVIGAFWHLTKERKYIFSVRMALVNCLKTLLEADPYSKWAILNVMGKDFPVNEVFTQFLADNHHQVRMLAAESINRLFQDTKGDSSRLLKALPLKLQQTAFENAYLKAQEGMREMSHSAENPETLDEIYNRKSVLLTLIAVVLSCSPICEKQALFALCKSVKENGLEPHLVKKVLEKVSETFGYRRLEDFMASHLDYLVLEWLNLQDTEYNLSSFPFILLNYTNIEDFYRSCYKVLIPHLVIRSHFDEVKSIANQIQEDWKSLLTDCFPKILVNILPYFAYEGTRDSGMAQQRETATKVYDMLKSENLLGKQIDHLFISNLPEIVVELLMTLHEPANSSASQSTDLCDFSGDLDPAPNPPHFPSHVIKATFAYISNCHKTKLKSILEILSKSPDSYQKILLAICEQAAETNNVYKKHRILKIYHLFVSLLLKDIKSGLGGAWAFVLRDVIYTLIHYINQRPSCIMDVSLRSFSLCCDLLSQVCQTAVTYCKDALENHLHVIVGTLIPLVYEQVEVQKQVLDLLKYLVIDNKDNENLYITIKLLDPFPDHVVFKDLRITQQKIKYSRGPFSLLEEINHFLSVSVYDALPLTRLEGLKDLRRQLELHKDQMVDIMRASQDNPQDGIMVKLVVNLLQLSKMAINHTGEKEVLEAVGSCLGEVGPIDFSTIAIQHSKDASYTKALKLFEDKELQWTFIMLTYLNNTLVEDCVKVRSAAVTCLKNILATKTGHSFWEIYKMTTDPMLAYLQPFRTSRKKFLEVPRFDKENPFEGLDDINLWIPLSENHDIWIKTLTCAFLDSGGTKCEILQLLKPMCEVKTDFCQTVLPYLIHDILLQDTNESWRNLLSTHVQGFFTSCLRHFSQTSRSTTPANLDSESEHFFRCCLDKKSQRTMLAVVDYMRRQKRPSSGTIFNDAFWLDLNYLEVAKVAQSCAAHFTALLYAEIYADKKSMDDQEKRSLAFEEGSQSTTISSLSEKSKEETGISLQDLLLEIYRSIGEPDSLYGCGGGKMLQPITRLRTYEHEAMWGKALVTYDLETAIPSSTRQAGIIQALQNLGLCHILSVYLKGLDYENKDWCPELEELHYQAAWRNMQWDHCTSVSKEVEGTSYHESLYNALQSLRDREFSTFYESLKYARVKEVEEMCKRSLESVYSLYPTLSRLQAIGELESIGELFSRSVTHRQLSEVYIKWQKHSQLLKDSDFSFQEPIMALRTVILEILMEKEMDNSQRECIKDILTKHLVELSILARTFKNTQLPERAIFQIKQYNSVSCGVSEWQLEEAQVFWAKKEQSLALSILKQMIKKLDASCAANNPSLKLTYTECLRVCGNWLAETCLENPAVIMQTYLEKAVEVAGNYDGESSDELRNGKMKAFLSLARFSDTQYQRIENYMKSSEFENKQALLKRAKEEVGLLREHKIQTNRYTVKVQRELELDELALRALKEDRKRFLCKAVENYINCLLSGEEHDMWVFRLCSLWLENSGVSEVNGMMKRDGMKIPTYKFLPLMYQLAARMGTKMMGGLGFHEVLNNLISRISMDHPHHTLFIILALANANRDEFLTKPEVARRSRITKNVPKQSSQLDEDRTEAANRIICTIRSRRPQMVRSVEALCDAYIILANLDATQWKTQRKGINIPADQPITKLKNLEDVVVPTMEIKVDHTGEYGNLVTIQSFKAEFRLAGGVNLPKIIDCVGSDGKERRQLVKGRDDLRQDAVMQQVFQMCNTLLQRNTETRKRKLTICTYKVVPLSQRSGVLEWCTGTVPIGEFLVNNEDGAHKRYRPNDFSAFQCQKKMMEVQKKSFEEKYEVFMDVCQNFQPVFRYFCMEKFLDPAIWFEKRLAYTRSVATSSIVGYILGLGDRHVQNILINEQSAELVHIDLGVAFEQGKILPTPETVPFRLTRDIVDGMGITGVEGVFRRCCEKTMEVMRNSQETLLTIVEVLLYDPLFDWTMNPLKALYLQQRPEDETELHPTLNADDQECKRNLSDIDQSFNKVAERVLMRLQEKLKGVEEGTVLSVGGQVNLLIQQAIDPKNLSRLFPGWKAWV
assay.readout: IC50

Here is how some compounds turned out for IC50.
Ask: Given the compound CC(Nc1ccc2c(c1)Sc1cccc(-c3cc(N4CCOCC4)cc(=O)[nH]3)c1S2)c1cc(C#N)ncn1 (single isomer, unassigned) [Example 1-12-146-1] , write its reported IC50.
Reply: < 100 nM

Ask: Report IC50, nothing else, for this compound: COc1cc(CNc2ccc3c(c2)Cc2cccc(-c4cc(N5CCOCC5)cc(=O)[nH]4)c2O3)cnc1OC [Example 2-2-35]
Reply: < 100 nM

Ask: Give the value of IC50 reported for the following: CCOC(=O)CNc1ccc2c(c1)Sc1cccc(-c3cc(N4CCOCC4)cc(=O)[nH]3)c1S2 [Example 1-12-49]
Reply: < 100 nM

Give measured IC50 for every item shown.
1. CCN(CC)CCNc1ccc2c(c1)Cc1cccc(-c3cc(N4CCOCC4)cc(=O)[nH]3)c1S2 [Example 3-4-4]
2. O=c1cc(N2CCOCC2)cc(-c2cccc3c2Oc2ccc(NCc4cncc(C5CCCC5)c4)cc2S3)[nH]1 [Example 4-8-15]
3. Cc1ccc(C(CCN(C)C)Nc2ccc3c(c2)Sc2cccc(-c4cc(N5CCOCC5)cc(=O)[nH]4)c2S3)nc1 (single isomer, unassigned) [Example 1-51-5]
4. O=c1cc(N2CCOCC2)cc(-c2cccc3c2Oc2ccc(NCc4cncc(C5CC5)c4)cc2C3)[nH]1 [Example 2-2-50]
5. CC(CCN1CCN(C)CC1)Nc1ccc2c(c1)Sc1cccc(-c3cc(N4CCOCC4)cc(=O)[nH]3)c1S2 (centres unmarked) [Example 1-42-2]

Reply:
["500 to 2000 nM", "< 100 nM", "< 100 nM", "< 100 nM", "100 to 500 nM"]

// for each compound in input: emit IC50
1. COCC(Nc1ccc2c(c1)Sc1cccc(-c3cc(N4CCOCC4)cc(=O)[nH]3)c1S2)c1ncc(C)cn1 (centres unmarked) [Example 1-12-96]
2. Cc1cccc(C(CN(C)C)Nc2ccc3c(c2)Sc2cccc(-c4cc(N5CCOCC5)cc(=O)[nH]4)c2S3)n1 (centres unmarked) [Example 1-22-3]
3. N#Cc1cccc(CNc2ccc3c(c2)Sc2cccc(-c4cc(N5CCOCC5)cc(=O)[nH]4)c2S3)n1 [Example 1-12-38]

Reply:
1: < 100 nM; 2: < 100 nM; 3: < 100 nM

----------
target: ATM (Homo sapiens); construct: detecting phosphorylation of Chk2 in a human non-small cell lung cancer cell line NCI-H460 (ATCC company); host or cells: NCI-H460 human non-small cell lung cancer cells; assay: ATM inhibition test (phosphorylation of Chk2 generated by ionizing radiation, AlphaScreen SureFire); type: cell-based; settings: phosphorylated Chk2 in NCI-H460 cells, ionizing radiation 8Gy, 1 hour after test compound treatment; read-out: ATM inhibitory activity
pIC50: −log10 of the molar value.
assay.readout: pIC50

Go through the items and report each one's pIC50.
1. COc1cncc(CN2CCC(Nc3ccc4c(c3)Cc3cccc(-c5cc(N6CCOCC6)cc(=O)[nH]5)c3O4)CC2)c1
2. Cc1ccc(C2(Nc3ccc4c(c3)Sc3cccc(-c5cc(N6CCOCC6)cc(=O)[nH]5)c3S4)COC2)nc1
3. Cc1cncc(CNc2ccc3c(c2)Sc2cccc(-c4cc(N5CCOCC5)cc(=O)[nH]4)c2S3)n1

Reply:
1: 5.70 to 6.30; 2: > 7.00; 3: 6.30 to 7.00

// input: 4 compounds below; output: pIC50 for each
1. CN1CCCC(Nc2ccc3c(c2)Sc2cccc(-c4cc(N5CCOCC5)cc(=O)[nH]4)c2S3)C1 (stereo not drawn)
2. Cc1cccc(C(C)Nc2ccc3c(c2)Cc2ccnc(-c4cc(N5CCOCC5)cc(=O)[nH]4)c2O3)n1 (stereo not drawn)
3. Cc1cccc(C(CO)Nc2ccc3c(c2)Cc2cccc(-c4cc(N5CCOCC5)cc(=O)[nH]4)c2O3)n1 (single isomer, unassigned) [Example 2-14-92-2]
4. Cc1ccnc(C(C)Nc2ccc3c(c2)Cc2cccc(-c4cc(N5CCOCC5)cc(=O)[nH]4)c2O3)c1 (single isomer, unassigned) [Example 2-14-93-1]

Reply:
["> 7.00", "6.30 to 7.00", "6.30 to 7.00", "6.30 to 7.00"]

Below are 6 compounds. Give each one its pIC50.
1. Cc1cccc(C(C)Nc2ccc3c(c2)Sc2cccc(-c4cc(N5CCOCC5)cc(=O)[nH]4)c2S3)n1 (single isomer, unassigned) [Example 1-12-136-2]
2. O=c1cc(N2CCOCC2)cc(-c2cccc3c2Sc2ccc(NCCN4CC(F)(F)C4)cc2S3)[nH]1
3. O=c1cc(N2CCOCC2)cc(-c2cccc3c2Sc2ccc(N[C@@H]4COC[C@H]4N4CCOCC4)cc2S3)[nH]1 (relative stereo)
4. O=c1cc(N2CCOCC2)cc(-c2cccc3c2Oc2ccc(NCc4cc(Cl)ccn4)cc2S3)[nH]1
5. Nc1ccc2c(c1)Cc1cc(F)cc(-c3cc(N4CCOCC4)cc(=O)[nH]3)c1O2
6. Cc1ccnc(C(CF)Nc2ccc3c(c2)Sc2cccc(-c4cc(N5CCOCC5)cc(=O)[nH]4)c2S3)n1 (stereo not drawn)

Reply:
> 7.00
6.30 to 7.00
> 7.00
> 7.00
5.70 to 6.30
> 7.00

Below is a list of compounds. For each, state its recorded pIC50.
1. O=C(Nc1ncc(CNc2ccc3c(c2)Sc2cccc(-c4cc(N5CCOCC5)cc(=O)[nH]4)c2S3)cn1)N1CCCC1
2. COc1cc(C(C)Nc2ccc3c(c2)Cc2cccc(-c4cc(N5CCOCC5)cc(=O)[nH]4)c2O3)ccn1 (stereo not drawn)
3. O=c1cc(N2CCOCC2)cc(-c2cccc3c2Oc2ccc(NC4CCN(CCc5ccccn5)CC4)cc2C3)[nH]1
4. Nc1ccc(CCN2CCC(Nc3ccc4c(c3)Cc3cccc(-c5cc(N6CCOCC6)cc(=O)[nH]5)c3O4)CC2)cc1
5. O=c1cc(N2CCOCC2)cc(-c2cccc3c2Sc2ccccc2S3)[nH]1
6. COC[C@H](CN1CCOCC1)Nc1ccc2c(c1)Cc1cccc(-c3cc(N4CCOCC4)cc(=O)[nH]3)c1O2
7. COc1cncc(CNc2ccc3c(c2)Sc2cccc(-c4cc(N5CCOCC5)cc(=O)[nH]4)c2S3)c1

Reply:
1: 6.30 to 7.00; 2: > 7.00; 3: 5.70 to 6.30; 4: 6.30 to 7.00; 5: 5.70 to 6.30; 6: 6.30 to 7.00; 7: > 7.00
